system.under.test: AChE (Homo sapiens, UniProt P22303)
Sequence (P22303 32-614): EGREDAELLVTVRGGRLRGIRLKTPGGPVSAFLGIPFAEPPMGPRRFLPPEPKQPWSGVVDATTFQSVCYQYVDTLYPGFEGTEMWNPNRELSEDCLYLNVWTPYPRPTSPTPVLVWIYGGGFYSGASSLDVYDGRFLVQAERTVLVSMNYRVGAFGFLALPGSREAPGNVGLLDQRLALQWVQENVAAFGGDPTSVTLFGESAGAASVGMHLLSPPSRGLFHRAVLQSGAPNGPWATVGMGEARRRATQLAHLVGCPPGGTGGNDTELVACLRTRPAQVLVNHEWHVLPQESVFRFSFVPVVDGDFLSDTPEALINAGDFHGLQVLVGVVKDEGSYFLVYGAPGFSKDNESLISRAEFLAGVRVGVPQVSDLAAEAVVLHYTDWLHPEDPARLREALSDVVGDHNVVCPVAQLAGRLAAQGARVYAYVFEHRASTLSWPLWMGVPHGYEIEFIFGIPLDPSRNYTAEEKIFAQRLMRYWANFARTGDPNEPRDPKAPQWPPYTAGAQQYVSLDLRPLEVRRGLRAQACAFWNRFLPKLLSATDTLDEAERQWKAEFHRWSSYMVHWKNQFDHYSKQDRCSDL
protocol.text: AChE inhibition (DTNB, acetylthiocholine)
Assay type: biochemical

>  <compound>
CCS(=O)(=O)N1C/C(=C\c2ccc(F)cc2)C(=O)C2(C1)C(c1ccc(F)cc1)CN(C)C21C(=O)Nc2ccc(Cl)cc21 (stereo not drawn)

>  <SI = IC50 (AChE)/IC50 (BChE)>
0.8

$$$$
>  <compound>
CN1CC(c2ccc(Cl)cc2)C2(CN(S(C)(=O)=O)C/C(=C\c3ccc(Cl)cc3)C2=O)C12C(=O)Nc1ccccc12 (stereo not drawn)

>  <SI = IC50 (AChE)/IC50 (BChE)>
1.3

$$$$
>  <compound>
COc1ccc(/C=C2\CN(S(C)(=O)=O)CC3(C2=O)C(c2ccc(OC)c(OC)c2)CN(C)C32C(=O)Nc3ccccc32)cc1OC (stereo not drawn)

>  <SI = IC50 (AChE)/IC50 (BChE)>
0.9

$$$$
>  <compound>
CCS(=O)(=O)N1C/C(=C\c2ccc(Cl)cc2)C(=O)C2(C1)C(c1ccc(Cl)cc1)CN(C)C21C(=O)Nc2ccc(Cl)cc21 (stereo not drawn)

>  <SI = IC50 (AChE)/IC50 (BChE)>
2.0

$$$$
>  <compound>
CN1CC(c2ccc(F)cc2)C2(CN(S(C)(=O)=O)C/C(=C\c3ccc(F)cc3)C2=O)C12C(=O)Nc1ccc(Cl)cc12 (stereo not drawn)

>  <SI = IC50 (AChE)/IC50 (BChE)>
1.0

$$$$
>  <compound>
CN1CC(c2ccccc2)C2(CN(S(C)(=O)=O)C/C(=C\c3ccccc3)C2=O)C12C(=O)Nc1ccccc12 (stereo not drawn)

>  <SI = IC50 (AChE)/IC50 (BChE)>
1.1

$$$$
>  <compound>
CCS(=O)(=O)N1C/C(=C\c2ccccc2)C(=O)C2(C1)C(c1ccccc1)CN(C)C21C(=O)Nc2ccccc21 (stereo not drawn)

>  <SI = IC50 (AChE)/IC50 (BChE)>
1.2

$$$$
>  <compound>
CN1CC(c2ccc(Cl)cc2)C2(CN(S(C)(=O)=O)C/C(=C\c3ccc(Cl)cc3)C2=O)C12C(=O)Nc1ccc(Cl)cc12 (stereo not drawn)

>  <SI = IC50 (AChE)/IC50 (BChE)>
1.9

$$$$
>  <compound>
COc1ccc(/C=C2\CN(S(C)(=O)=O)CC3(C2=O)C(c2ccc(OC)c(OC)c2)CN(C)C32C(=O)Nc3ccc(Cl)cc32)cc1OC (stereo not drawn)

>  <SI = IC50 (AChE)/IC50 (BChE)>
1.1

$$$$
>  <compound>
CCS(=O)(=O)N1C/C(=C\c2ccc(F)cc2)C(=O)C2(C1)C(c1ccc(F)cc1)CN(C)C21C(=O)Nc2ccccc21 (stereo not drawn)

>  <SI = IC50 (AChE)/IC50 (BChE)>
0.8

$$$$
>  <compound>
CCS(=O)(=O)N1C/C(=C\c2ccc(Cl)cc2)C(=O)C2(C1)C(c1ccc(Cl)cc1)CN(C)C21C(=O)Nc2ccccc21 (stereo not drawn)

>  <SI = IC50 (AChE)/IC50 (BChE)>
1.6

$$$$
>  <compound>
CN1CC(c2ccc(F)cc2)C2(CN(S(C)(=O)=O)C/C(=C\c3ccc(F)cc3)C2=O)C12C(=O)Nc1ccccc12 (stereo not drawn)

>  <SI = IC50 (AChE)/IC50 (BChE)>
0.7

$$$$
>  <compound>
CN1CC(c2ccc(Br)cc2)C2(CN(S(C)(=O)=O)C/C(=C\c3ccc(Br)cc3)C2=O)C12C(=O)Nc1ccccc12 (stereo not drawn)

>  <SI = IC50 (AChE)/IC50 (BChE)>
1.1

$$$$
>  <compound>
CN1CC(c2ccccc2)C2(CN(S(C)(=O)=O)C/C(=C\c3ccccc3)C2=O)C12C(=O)Nc1ccc(Cl)cc12 (stereo not drawn)

>  <SI = IC50 (AChE)/IC50 (BChE)>
0.9

$$$$
>  <compound>
CCS(=O)(=O)N1C/C(=C\c2ccccc2)C(=O)C2(C1)C(c1ccccc1)CN(C)C21C(=O)Nc2ccc(Cl)cc21 (stereo not drawn)

>  <SI = IC50 (AChE)/IC50 (BChE)>
1.2

$$$$

###

Test system: SARS-CoV-2 (hCoV-19/Egypt/NRC-03/2020)
protocol.text: Vero-E6 cell viral infection model, anti-SARS-CoV-2 IC50 (CPE, crystal violet)
Type: cell-based
condition.summary: Vero-E6, SARS-CoV-2
recorded.metric: SI = CC50/IC50

>  <molecule>
CN1CC(c2ccc(Br)cc2)C2(CN(S(C)(=O)=O)C/C(=C\c3ccc(Br)cc3)C2=O)C12C(=O)Nc1ccccc12 (stereo not drawn) [Compound 6m]

>  <quantitative.readout>
17.9

$$$$
>  <molecule>
COc1ccc(/C=C2\CN(S(C)(=O)=O)CC3(C2=O)C(c2ccc(OC)c(OC)c2)CN(C)C32C(=O)Nc3ccccc32)cc1OC (stereo not drawn) [Compound 6n]

>  <quantitative.readout>
17.3

$$$$
>  <molecule>
CCS(=O)(=O)N1C/C(=C\c2ccc(Cl)cc2)C(=O)C2(C1)C(c1ccc(Cl)cc1)CN(C)C21C(=O)Nc2ccc(Cl)cc21 (stereo not drawn) [Compound 6l]

>  <quantitative.readout>
15.1

$$$$
>  <molecule>
CN1CC(c2ccccc2)C2(CN(S(C)(=O)=O)C/C(=C\c3ccccc3)C2=O)C12C(=O)Nc1ccc(Cl)cc12 (stereo not drawn) [Compound 6b]

>  <quantitative.readout>
132.0

$$$$
>  <molecule>
CN1CC(c2ccc(Cl)cc2)C2(CN(S(C)(=O)=O)C/C(=C\c3ccc(Cl)cc3)C2=O)C12C(=O)Nc1ccccc12 (stereo not drawn) [Compound 6i]

>  <quantitative.readout>
2.1

$$$$
>  <molecule>
CN1CC(c2ccc(F)cc2)C2(CN(S(C)(=O)=O)C/C(=C\c3ccc(F)cc3)C2=O)C12C(=O)Nc1ccccc12 (stereo not drawn) [Compound 6e]

>  <quantitative.readout>
7.3

$$$$
>  <molecule>
CN1CC(c2ccccc2)C2(CN(S(C)(=O)=O)C/C(=C\c3ccccc3)C2=O)C12C(=O)Nc1ccccc12 (stereo not drawn) [Compound 6a]

>  <quantitative.readout>
158.6

$$$$
>  <molecule>
CCS(=O)(=O)N1C/C(=C\c2ccccc2)C(=O)C2(C1)C(c1ccccc1)CN(C)C21C(=O)Nc2ccccc21 (stereo not drawn) [Compound 6c]

>  <quantitative.readout>
55.5

$$$$
>  <molecule>
COc1ccc(/C=C2\CN(S(C)(=O)=O)CC3(C2=O)C(c2ccc(OC)c(OC)c2)CN(C)C32C(=O)Nc3ccc(Cl)cc32)cc1OC (stereo not drawn) [Compound 6o]

>  <quantitative.readout>
2.2

$$$$
>  <molecule>
CCS(=O)(=O)N1C/C(=C\c2ccc(F)cc2)C(=O)C2(C1)C(c1ccc(F)cc1)CN(C)C21C(=O)Nc2ccccc21 (stereo not drawn) [Compound 6g]

>  <quantitative.readout>
4.7

$$$$
>  <molecule>
CCS(=O)(=O)N1C/C(=C\c2ccc(F)cc2)C(=O)C2(C1)C(c1ccc(F)cc1)CN(C)C21C(=O)Nc2ccc(Cl)cc21 (stereo not drawn) [Compound 6h]

>  <quantitative.readout>
34.1

$$$$
>  <molecule>
CCS(=O)(=O)N1C/C(=C\c2ccc(Cl)cc2)C(=O)C2(C1)C(c1ccc(Cl)cc1)CN(C)C21C(=O)Nc2ccccc21 (stereo not drawn) [Compound 6k]

>  <quantitative.readout>
6.6

$$$$
>  <molecule>
CCS(=O)(=O)N1C/C(=C\c2ccccc2)C(=O)C2(C1)C(c1ccccc1)CN(C)C21C(=O)Nc2ccc(Cl)cc21 (stereo not drawn) [Compound 6d]

>  <quantitative.readout>
101.1

$$$$
>  <molecule>
CN1CC(c2ccc(F)cc2)C2(CN(S(C)(=O)=O)C/C(=C\c3ccc(F)cc3)C2=O)C12C(=O)Nc1ccc(Cl)cc12 (stereo not drawn) [Compound 6f]

>  <quantitative.readout>
8.8

$$$$
>  <molecule>
CN1CC(c2ccc(Cl)cc2)C2(CN(S(C)(=O)=O)C/C(=C\c3ccc(Cl)cc3)C2=O)C12C(=O)Nc1ccc(Cl)cc12 (stereo not drawn) [Compound 6j]

>  <quantitative.readout>
7.4

$$$$

###

system.under.test: AChE (Homo sapiens, UniProt P22303)
protocol.text: AChE inhibition (DTNB, acetylthiocholine)
Format: biochemical
condition.summary: read-out: AChE (IC50, μM) ± SD
Here the recorded IC50 is given for each entry.
recorded.metric: IC50 (µM)

>  <compound>
CN1CC(c2ccc(F)cc2)C2(CN(S(C)(=O)=O)C/C(=C\c3ccc(F)cc3)C2=O)C12C(=O)Nc1ccccc12 (stereo not shown)

>  <system.under.test>
AChE (Homo sapiens, UniProt P22303)

>  <scale.unit>
µM

>  <quantitative.readout>
15.1

$$$$
>  <compound>
COc1ccc(/C=C2\CN(S(C)(=O)=O)CC3(C2=O)C(c2ccc(OC)c(OC)c2)CN(C)C32C(=O)Nc3ccc(Cl)cc32)cc1OC (stereo not shown)

>  <system.under.test>
AChE (Homo sapiens, UniProt P22303)

>  <scale.unit>
µM

>  <quantitative.readout>
27

$$$$
>  <compound>
CCS(=O)(=O)N1C/C(=C\c2ccccc2)C(=O)C2(C1)C(c1ccccc1)CN(C)C21C(=O)Nc2ccc(Cl)cc21 (stereo not shown)

>  <system.under.test>
AChE (Homo sapiens, UniProt P22303)

>  <scale.unit>
µM

>  <quantitative.readout>
41

$$$$
>  <compound>
CCS(=O)(=O)N1C/C(=C\c2ccccc2)C(=O)C2(C1)C(c1ccccc1)CN(C)C21C(=O)Nc2ccccc21 (stereo not shown)

>  <system.under.test>
AChE (Homo sapiens, UniProt P22303)

>  <scale.unit>
µM

>  <quantitative.readout>
78

$$$$
>  <compound>
CN1CC(c2ccc(F)cc2)C2(CN(S(C)(=O)=O)C/C(=C\c3ccc(F)cc3)C2=O)C12C(=O)Nc1ccc(Cl)cc12 (stereo not shown)

>  <system.under.test>
AChE (Homo sapiens, UniProt P22303)

>  <scale.unit>
µM

>  <quantitative.readout>
3.89

$$$$
>  <compound>
CN1CC(c2ccccc2)C2(CN(S(C)(=O)=O)C/C(=C\c3ccccc3)C2=O)C12C(=O)Nc1ccccc12 (stereo not shown)

>  <system.under.test>
AChE (Homo sapiens, UniProt P22303)

>  <scale.unit>
µM

>  <quantitative.readout>
22.2

$$$$
>  <compound>
CN1CC(c2ccc(Cl)cc2)C2(CN(S(C)(=O)=O)C/C(=C\c3ccc(Cl)cc3)C2=O)C12C(=O)Nc1ccccc12 (stereo not shown)

>  <system.under.test>
AChE (Homo sapiens, UniProt P22303)

>  <scale.unit>
µM

>  <quantitative.readout>
18.2

$$$$
